# target-desc: Cytochrome P450 1A2 (Homo sapiens)
# assay-method-text: Cytochrome P450 Family 1 Subfamily A Member 2 (CYP1A2) small molecule antagonists: luciferase reporter qHTS assay (AID 1671199); further: nearly all actives have a fitted effect of over 50% in size
# particulars: P450-Glo CYP1A2 enzyme, luciferin luminescence, 1 h; series mostly up to 115 µM
Records with an inconclusive call do not appear. Activity calls are given as the source filed them. The call rests on the fitted dose curve; in most records, active means well fitted inhibition curve with a large enough effect in the repeat runs; inconclusive means weak or mixed curves; inactive means no such curve, though single readings can be large or run the other way.
Classes used: active, inactive

1. CC(CCO)CC(C)(C)C (stereo not drawn)	inactive
2. C[Si]1(C)O[Si](C)(C)O[Si](C)(C)O[Si](C)(C)O1	inactive
3. Brc1ccc(Br)c(Br)c1	inactive
4. Clc1ccccn1	inactive
5. CCCCCC(=O)O	inactive
6. NC(=S)NNC(N)=S	inactive
7. CN1C(=O)CC[C@H]1c1cccnc1	inactive
8. CC(O)CC(C)(C)O (stereo not drawn)	inactive
9. O=c1[nH]cnc2[nH]ncc12	inactive
10. C=CC[N+](C)(C)CC=C	inactive
11. CC(=O)OCc1ccco1	inactive
12. C=Cc1ccc(C)cc1	inactive
13. CC(C)=CCl	inactive
14. CCCCCCCC=O	inactive
15. OC1C(O)C(O)C(O)C(O)C1O (stereo not drawn)	inactive
16. CC(C)OP(=O)(CP(=O)(OC(C)C)OC(C)C)OC(C)C	inactive
17. Cc1ccc(S(=O)(=O)N=C=O)cc1	inactive
18. C=C(C)[C@H]1CC=C(C)C(=O)C1	inactive
19. CC(=O)c1ccc(O)cc1	inactive
20. COC(=O)CCCC(=O)OC	inactive
21. CCO[Si](CCCN)(OCC)OCC	inactive
22. C=C(C)CNCC	inactive
23. O=S(=O)(O)c1ccc(N=Nc2c(O)ccc3cc(S(=O)(=O)O)ccc23)cc1	active
24. C=C(C)C(=O)OCC(C)C	inactive
25. CCCCCCCCCCCC(=O)OC	inactive
26. CCCCCCCO	inactive
27. O=C(O)c1cc2ccccc2cc1O	active
28. CCNc1cccc(C)c1	inactive

Values from PubChem BioAssay (Tox21)
